List of TGI values.
# System: DMS 114 small cell lung
# Method: NCI tumour cell line growth inhibition, 48 h

Please review the entries below; each comes with its answer.
COc1ccc(N2C(=O)c3c(c4[nH]c5ccccc5c4c4ccc(C(C)(C)C)cc34)C2=O)cc1	> 100 µM
COC(=O)CCSC(=O)Nc1ccc(N=Nc2ccccc2)cc1	> 100 µM
COC(=O)C(=O)Cc1nc2ccccc2s1	> 100 µM
Nc1ccc2n[se]nc2c1	> 100 µM
Nc1nncc2c1c(Br)cn2C1OC(CO)C(O)C1O (stereo unspecified)	62.6 µM
O=C(Cc1ccccc1)NN1C(=O)C(Cl)C1c1ccccc1Cl (stereo unspecified)	> 88.4 µM
CCOC(=O)c1c2ccc(/C=C/c3ccccn3)ccc-2c(C(=O)OCC)c1N	> 100 µM
Nc1nnc2c(-c3ccccc3)[nH]nc2n1	> 100 µM
COC1=C(N)C(=O)c2nc(-c3nc(C(=O)O)c(C)c(-c4ccc(OC)c(OC)c4O)c3N)ccc2C1=O	0.0118 µM
O=S(O)CCCCCSSc1ccccc1	66.6 µM

Q: Give the value of TGI reported for the following: CC(C)c1cccc(C(C)C)c1NC(=O)C(=O)Cc1nc2ccc([N+](=O)[O-])cc2[nH]c1=O
Ans: > 100 µM

Q: Give the value of TGI reported for the following: CN(C)CCNC(=O)c1cccc2c1nc(-c1ccc(F)cc1)c1ccccc12
Ans: 19.2 µM

Q: Give the value of TGI reported for the following: COCC(C)(C)N=CN1Cc2cc3ccccc3nc2C1
Ans: > 100 µM

Q: Give the value of TGI reported for the following: CC(C)(CN1C(=O)C(Cl)=C(Cl)C1=O)CN1C(=O)C(Cl)=C(Cl)C1=O
Ans: 25.2 µM

Q: Give the value of TGI reported for the following: CCNC(=O)C(C)C1CCC2(C)C=CC(=O)C(C)=C2C1O (stereo unspecified)
Ans: > 100 µM

Q: Give the value of TGI reported for the following: CCCCCCCC/C=C1\CCC(CN(C)C)C1=O (stereo unspecified)
Ans: 13.6 µM

###

# System: SF-539 CNS
# Method: NCI tumour cell line growth inhibition, 48 h
List of TGI values.

Please review the entries below; each comes with its answer.
Cc1ccc(CNc2ccc(Br)cc2)cc1	> 100 µM
CCOC1=C2N=C(C(CC)c3ccccc3F)N=C2C(=O)c2ccccc21 (centres undefined)	> 100 µM
Nc1nc(NNc2cccc(F)c2)cc(=O)[nH]1	> 100 µM
COc1cc2cc(Oc3ccc(NC(=O)Nc4cc(C(F)(F)F)cc(C(F)(F)F)c4)cc3)c(C)nc2cc1OCCN1CCOCC1	5.25 µM
O=C(Nc1ccc([N+](=O)[O-])cc1)Nn1cnnc1	73.9 µM

We now examine a further compound.
Q: Identify measured TGI obtained with SF-539 CNS for NC(=O)c1ccc2c(c1)-c1nc-2nc2[n-]c(nc3nc(nc4[n-]c(n1)c1ccc(C(N)=O)cc41)-c1ccc(C(N)=O)cc1-3)c1ccc(C(N)=O)cc21.[Co+2] .
Ans: 33.5 µM

###

# System: NCI-H460 lung
# Method: NCI tumour cell line growth inhibition, 48 h
Where a SMILES comes first, the peptide text is derived from it. The star is where a group is joined. Trt = c1ccc(C(c2ccccc2)(c2ccccc2)*)cc1; Cbz = O=C(OCc1ccccc1)*
List of TGI values.

Please review the entries below; each comes with its answer.
CCOC(=O)[C@@H](C)C[C@H](Cc1ccccc1)NC(=O)c1csc([C@@H](C[C@H](C(C)C)N(C)C(=O)[C@@H](NC(=O)[C@H]2CCCCN2C)C(C)(C)CC)OC(C)=O)n1	> 12.9 µM
COC(=O)c1ccc2c(c1)CC1(C2)Cc2cc3c(cc2C1)CCC3	> 100 µM
CCN(CC)c1ccc(/C=C/C(=O)c2ccc(Nc3nc(Nc4ccccc4)nc(Nc4ccccc4)n3)cc2)cc1	17.6 µM
CN1CCN(CC(=O)N(C)c2ccc(N=C(c3ccccc3)c3c(O)[nH]c4ccc(C#N)cc34)cc2)CC1	3.25 µM
CC(C)=CCc1cc2c(cc1O)C1=C(C(=O)C3=C(C1=O)S(=O)(=O)CCN3)C(C=C(C)C)O2 (stereo not drawn)	2.3 µM

Q: Give the value of TGI reported for the following: CC1=NN(c2nc(N)nc(NS(=O)(=O)c3cc(C)c(Cl)cc3S)n2)C(C)(C)C1
Ans: > 10 µM

Q: Give the value of TGI reported for the following: O=C1Oc2ccccc2C1C/C(=N\Nc1ccccc1)c1ccccc1O (stereo not drawn)
Ans: > 100 µM

Q: Give the value of TGI reported for the following: COC(=O)C(CO)NC(=O)C(CSC(c1ccccc1)(c1ccccc1)c1ccccc1)NC(=O)OCc1ccccc1 (stereo not drawn) (Cbz-Cys(Trt)-Ser-OMe; configuration not given here)
Ans: 33.6 µM
